Test system: HUVEC
PROTOCOL DETAILS: Antiproliferative activity against HUVEC grown in presence of growth factors after 48 hrs by spectrophotometry
Assay type: functional, cell-based
SETUP CONDITIONS: Homo sapiens, read-out: IC50
We begin with a simple list: items and their reported IC50.
MEASUREMENT TYPE: IC50 (nM)

- SMILES REPR: "COc1ccc2c(C(=O)c3cc(OC)c(OC)c(OC)c3)c(-c3ccc(O)cc3)oc2c1"
  MEASUREMENT TYPE: "IC50"
  UNIT OF MEASURE: "nM"
  EXPERIMENTAL VALUE: 30
- SMILES REPR: "COc1cc(C(=O)c2coc3c(O)c(OC)ccc23)cc(OC)c1OC"
  MEASUREMENT TYPE: "IC50"
  UNIT OF MEASURE: "nM"
  EXPERIMENTAL VALUE: 83
- SMILES REPR: "COc1cc(C(=O)c2c(NCCN(C)C)oc3c(O)c(OC)ccc23)cc(OC)c1OC"
  MEASUREMENT TYPE: "IC50"
  UNIT OF MEASURE: "nM"
  EXPERIMENTAL VALUE: 29
- SMILES REPR: "COc1cc(C(=O)c2c(C#N)oc3c(O)c(OC)ccc23)cc(OC)c1OC"
  MEASUREMENT TYPE: "IC50"
  UNIT OF MEASURE: "nM"
  EXPERIMENTAL VALUE: 1.1
- SMILES REPR: "COc1ccc2c(C(=O)c3cc(OC)c(OC)c(OC)c3)c(Br)oc2c1"
  MEASUREMENT TYPE: "IC50"
  UNIT OF MEASURE: "nM"
  EXPERIMENTAL VALUE: 510
- SMILES REPR: "COc1cc(C(=O)c2c(-c3cnn(C)c3)oc3c(O)c(OC)ccc23)cc(OC)c1OC"
  MEASUREMENT TYPE: "IC50"
  UNIT OF MEASURE: "nM"
  EXPERIMENTAL VALUE: 0.4
- SMILES REPR: "COc1ccc2c(C(=O)c3cc(OC)c(OC)c(OC)c3)c(-c3ccc(OC)nc3)oc2c1"
  MEASUREMENT TYPE: "IC50"
  UNIT OF MEASURE: "nM"
  EXPERIMENTAL VALUE: 45
- SMILES REPR: "COc1ccc(-c2oc3c(O)c(OC)ccc3c2C(=O)c2cc(OC)c(OC)c(OC)c2)cc1O"
  MEASUREMENT TYPE: "IC50"
  UNIT OF MEASURE: "nM"
  EXPERIMENTAL VALUE: 1.7
- SMILES REPR: "COc1cc(C(=O)c2c(NCCO)oc3c(O)c(OC)ccc23)cc(OC)c1OC"
  MEASUREMENT TYPE: "IC50"
  UNIT OF MEASURE: "nM"
  EXPERIMENTAL VALUE: 3.1
- SMILES REPR: "COc1ccc2c(C(=O)c3cc(OC)c(OC)c(OC)c3)c(-c3ccc(OC)c(N)c3)oc2c1"
  MEASUREMENT TYPE: "IC50"
  UNIT OF MEASURE: "nM"
  EXPERIMENTAL VALUE: 32
- SMILES REPR: "COc1ccc2c(C(=O)c3cc(OC)c(OC)c(OC)c3)c(N3CCN(C)CC3)oc2c1"
  MEASUREMENT TYPE: "IC50"
  UNIT OF MEASURE: "nM"
  EXPERIMENTAL VALUE: 484
- SMILES REPR: "COc1cc(C(=O)c2c(-c3cccs3)oc3c(O)c(OC)ccc23)cc(OC)c1OC"
  MEASUREMENT TYPE: "IC50"
  UNIT OF MEASURE: "nM"
  EXPERIMENTAL VALUE: 0.31
- SMILES REPR: "COc1cc(C(=O)c2c(N)oc3c(O)c(OC)ccc23)cc(OC)c1OC"
  MEASUREMENT TYPE: "IC50"
  UNIT OF MEASURE: "nM"
  EXPERIMENTAL VALUE: 1.9
- SMILES REPR: "COc1cc(C(=O)c2c(/C=C/C(N)=O)oc3c(O)c(OC)ccc23)cc(OC)c1OC"
  MEASUREMENT TYPE: "IC50"
  UNIT OF MEASURE: "nM"
  EXPERIMENTAL VALUE: 2.6
- SMILES REPR: "COC(=O)/C=C/c1oc2c(O)c(OC)ccc2c1C(=O)c1cc(OC)c(OC)c(OC)c1"
  MEASUREMENT TYPE: "IC50"
  UNIT OF MEASURE: "nM"
  EXPERIMENTAL VALUE: 0.38
- SMILES REPR: "COc1cc(C(=O)c2c(-c3cnn(C)c3)oc3c(OC(C)C)c(OC)ccc23)cc(OC)c1OC"
  MEASUREMENT TYPE: "IC50"
  UNIT OF MEASURE: "nM"
  EXPERIMENTAL VALUE: 665
- SMILES REPR: "COc1ccc2c(C(=O)c3cc(OC)c(OC)c(OC)c3)coc2c1"
  MEASUREMENT TYPE: "IC50"
  UNIT OF MEASURE: "nM"
  EXPERIMENTAL VALUE: 45
- SMILES REPR: "COc1cc(C(=O)c2c(-c3ccco3)oc3c(O)c(OC)ccc23)cc(OC)c1OC"
  MEASUREMENT TYPE: "IC50"
  UNIT OF MEASURE: "nM"
  EXPERIMENTAL VALUE: 3.6
- SMILES REPR: "COc1cc(C(=O)c2c(C)oc3c(O)c(OC)ccc23)cc(OC)c1OC"
  MEASUREMENT TYPE: "IC50"
  UNIT OF MEASURE: "nM"
  EXPERIMENTAL VALUE: 0.31
- SMILES REPR: "COc1ccc2c(C(=O)c3cc(OC)c(OC)c(OC)c3)c(-c3ccc4c(ccn4C)c3)oc2c1"
  MEASUREMENT TYPE: "IC50"
  UNIT OF MEASURE: "nM"
  EXPERIMENTAL VALUE: 41

Sourced from ChEMBL document CHEMBL1821642
